experiment: In vivo pharmacokinetic in rats; design: species or system Sprague Dawley rats; conditions: Sprague Dawley, rat, plasma, iv, 5 mg/kg
REPORTED_METRIC: half-life (h)
One number for each entry, in h.

Which half-life is reported for this compound? CC(=O)O[C@@]12CO[C@@H]1C[C@H](O)[C@@]1(C)C(=O)[C@H](O)C3=C(C)[C@@H](OC(=O)[C@H](O)[C@@H](NC(=O)OC(C)(C)C)c4ccccc4)C[C@@](O)([C@@H](OC(=O)c4ccccc4)[C@H]21)C3(C)C [DTX, Docetaxel]
6.67

###

experiment: In vivo pharmacokinetic in rats; set-up: species or system Sprague Dawley rats; settings: Sprague Dawley, rat, plasma, iv, 5 mg/kg
REPORTED_METRIC: MRT (h)
Answers are plain numbers, in h.

Which MRT is reported for this compound? CC(=O)O[C@@]12CO[C@@H]1C[C@H](O)[C@@]1(C)C(=O)[C@H](O)C3=C(C)[C@@H](OC(=O)[C@H](O)[C@@H](NC(=O)OC(C)(C)C)c4ccccc4)C[C@@](O)([C@@H](OC(=O)c4ccccc4)[C@H]21)C3(C)C [DTX, Docetaxel]
1.99

###

experiment: In vivo pharmacokinetic in rats; set-up: species or system Sprague Dawley rats; conditions: Sprague Dawley, rat, plasma, iv, 5 mg/kg
REPORTED_METRIC: AUC (ng·h/mL)
Give bare numbers, in ng·h/mL.

Which AUC is reported for this compound? `CC(=O)O[C@@]12CO[C@@H]1C[C@H](O)[C@@]1(C)C(=O)[C@H](O)C3=C(C)[C@@H](OC(=O)[C@H](O)[C@@H](NC(=O)OC(C)(C)C)c4ccccc4)C[C@@](O)([C@@H](OC(=O)c4ccccc4)[C@H]21)C3(C)C`
5290

###

experiment: In vivo pharmacokinetic in rats; design: species or system Sprague Dawley rats; settings: Sprague Dawley, rat, plasma, iv, 5 mg/kg
REPORTED_METRIC: Cmax (ng/mL)
Answers are plain numbers, in ng/mL.

Which Cmax is reported for this compound? `CC(=O)O[C@@]12CO[C@@H]1C[C@H](O)[C@@]1(C)C(=O)[C@H](O)C3=C(C)[C@@H](OC(=O)[C@H](O)[C@@H](NC(=O)OC(C)(C)C)c4ccccc4)C[C@@](O)([C@@H](OC(=O)c4ccccc4)[C@H]21)C3(C)C`
6100
